- Test system: OVCAR-3 ovarian
- test summary: NCI-60 one-dose screen, 48 h
- assay setup: 10 µM unless noted
- Method: Growth inhibition of the OVCAR-3 human tumor cell line is measured as a screen for anti-cancer activity. Cells are grown in 96 well plates and exposed to the test compound for 48 hours. Compounds are tested at a single concentration, which is 10^-5 M for most compounds. The reported endpoint is percent growth (GI% or GIPRCNT), where numbers from 0 - 100% represent growth inhibition, and numbers from -100% - 0 represent cell death. For example, a value of 40 represents 60% growth inhibition. […]
This is part of a sample that, as a whole, favours compounds with a hit. Of some 83,000 tested, about 20% had one in any assay. Active and inactive are the calls of the source. Rule for the calls: active = growth percent below 10; inactive = the rest.
The categories you may choose from are 1 = active, 0 = inactive

Record excerpt, results attached:
{"columns": ["structure smiles", "assigned label"],
 "data": [
  ["C=CCc1c(O)c(C(=O)/C=C/c2ccccc2)c(OC)c2ccoc12", 0],
  ["NC(=O)c1ccc(-c2c3ccccc3cc3c2ccc2ccccc23)cc1", 1],
  ["COc1cc2cc(NCc3cccc(Cl)c3)nc(C)c2cc1OC", 0]
]}

What is the recorded call for this compound in the test? O=S(=O)(Nc1ccc(Cl)c(C(F)(F)F)c1)c1ccc(-c2cnc(C3CC3)o2)cc1
1

What is the recorded call for this compound in the test? O=C1Nc2ccc(C(=O)O)cc2/C1=N/c1nnc(Sc2ccccc2)s1
0

----------
- Test system: HCT-15 colon
- test summary: NCI-60 one-dose screen, 48 h
- assay setup: 10 µM unless noted
About 83,000 compounds went through this panel and 20% of them were active in at least one assay; those are over-represented in the sample as a whole. Activity calls are given as the source filed them. The calls were made as follows: active = growth percent below 10; inactive = the rest.
The categories you may choose from are active, inactive

Record excerpt, results attached:
{"columns": ["molecule", "assigned label"],
 "data": [
  ["CC(C)COc1nc2c(c(=O)n(C)c(=O)n2C)n1C", "inactive"],
  ["COc1ccc(C2CC(c3ccc(Nc4nc(Nc5ccccc5)nc(Nc5ccccc5)n4)cc3)=NN2C(C)=O)cc1 (stereo not given)", "inactive"],
  ["Clc1cccc(Nc2ncnc3ccc(-c4cnc5[nH]ccc5c4)cc23)c1", "inactive"],
  ["O=C(c1nn(-c2ccccc2)c2c1CC(NCc1ccc(F)cc1)CC2)N1CCCCC1 (stereo not given)", "inactive"]
]}

Shifting focus to the molecule that follows.
What is the recorded call for this molecule in the test? Cn1c(=O)cc2c3c(c(NCCCO)ccc31)C(=O)c1ccccc1-2
inactive

----------
- Tested on: NCI/ADR-RES ovarian
- test summary: NCI-60 one-dose screen, 48 h
- assay setup: 10 µM unless noted
This is part of a sample that, as a whole, favours compounds with a hit. Of some 83,000 tested, about 20% had one in any assay. Activity calls are given as the source filed them. How the source made its calls: active means growth percent below 10; inactive means the rest.
The categories you may choose from are YES for active, NO for inactive

Record excerpt, results attached:
{"columns": ["molecule", "tested system", "assigned label"],
 "data": [
  ["CCN1C(=S)N(c2ccccc2)C2NC(=S)N(/N=C/C=C/c3ccccc3OC)C21 (stereo not given)", "NCI/ADR-RES ovarian", "YES"],
  ["CCNCCNc1cc(C2CCCCC2)c(C#N)c2nc3ccccc3n12", "NCI/ADR-RES ovarian", "NO"],
  ["COC(=O)c1nc(-c2ccc(C)cc2)oc1S(=O)(=O)c1cccc(OC)c1", "NCI/ADR-RES ovarian", "NO"],
  ["NS(=O)(=O)c1ccccc1NC(=O)Nc1nc2ccccc2s1", "NCI/ADR-RES ovarian", "NO"],
  ["O=C(c1ccncc1)N1N=C(c2ccc(Cl)cc2)C[C@H]1c1cn(-c2ccccc2)nc1-c1ccccc1", "NCI/ADR-RES ovarian", "NO"],
  ["CNc1nnc2n(-c3ccccc3)c(=O)c3cnn(-c4ccccc4)c3n12", "NCI/ADR-RES ovarian", "NO"],
  ["c1ccc2cc(C[n+]3ccn(CCCCCCCCCCn4cc[n+](Cc5ccc6ccccc6c5)c4)c3)ccc2c1", "NCI/ADR-RES ovarian", "NO"],
  ["Cc1cccc(/C=C/c2c(C(=O)/C=C/c3ccccc3)c(C)nc3ccccc23)c1", "NCI/ADR-RES ovarian", "YES"]
]}

What is the recorded call for this molecule in the test? COc1cc2c(c(OC)c1OC)CCC(c1cccc(C(=O)Nc3ccc(C#N)cc3)c1)O2 (stereo not given)
NO

What is the recorded call for this molecule in the test? COc1ccccc1N1CCCCC1
NO

What is the recorded call for this molecule in the test? COc1ccc(-c2nc3c(ncc4ccc(=O)[nH]c43)s2)cc1
NO
